# MEASUREMENT_DESCRIPTION: Oral bioavailability in C57BL/6 mouse at 18.7 mg/kg via gavage by LC-MS/MS analysis
# Type: ADME, organism-based
# CONDITION_DESCRIPTION: in vivo
MEASUREMENT_TYPE: bioavailability (%)
Quick reminder: number only, in %, skip the unit.

Problem: Find the measured bioavailability of `c1ccc(Oc2ccc(CN3CCC4(CC3)OCCc3sccc34)cc2)cc1` and report it.
Result: 1.5

* * *

# MEASUREMENT_DESCRIPTION: Volume of distribution at steady state in C57BL/6 mouse at 4.5 mg/kg, iv by LC-MS/MS analysis
# Format: ADME, organism-based
# CONDITION_DESCRIPTION: in vivo, read-out: Vdss
MEASUREMENT_TYPE: Vd (L/kg)
Quick reminder: number only, in L/kg, skip the unit.

Problem: Find the measured Vd of `Brc1ccc(Nc2ccc(CN3CCC4(CC3)OCCc3sccc34)cc2)cc1` and report it.
Result: 12

* * *

# MEASUREMENT_DESCRIPTION: Volume of distribution at steady state in C57BL/6 mouse at 3.6 mg/kg, iv by LC-MS/MS analysis
# Type: ADME, organism-based
# CONDITION_DESCRIPTION: in vivo, read-out: Vdss
MEASUREMENT_TYPE: Vd (L/kg)
Quick reminder: number only, in L/kg, skip the unit.

Problem: Find the measured Vd of `c1ccc(Oc2ccc(CN3CCC4(CC3)OCCc3sccc34)cc2)cc1` and report it.
Result: 19.4

* * *

# MEASUREMENT_DESCRIPTION: Oral bioavailability in C57BL/6 mouse at 45 mg/kg via gavage by LC-MS/MS analysis
# Assay type: ADME, organism-based
# CONDITION_DESCRIPTION: in vivo
MEASUREMENT_TYPE: bioavailability (%)
Quick reminder: number only, in %, skip the unit.

Problem: Find the measured bioavailability of `Brc1ccc(Nc2ccc(CN3CCC4(CC3)OCCc3sccc34)cc2)cc1` and report it.
Result: 84.6

* * *

# Test system: HepG2
# MEASUREMENT_DESCRIPTION: Cytotoxicity against human HepG2 cells assessed as effect on mitochondrial membrane potential after 48 hrs by TMRM-staining based cell health assay
# Assay type: ADME
# CONDITION_DESCRIPTION: HepG2, 48 h
# reported IC50; entries follow
Quick reminder: number only, in µM, skip the unit.

Reference set (3 entries):
FC(F)(F)Oc1ccc(Oc2ccc(CN3CCC4(CCCCO4)CC3)cc2)cc1	46.3
CC(C)(C)c1ccc(CN2CCC3(CC2)OCCCCO3)cc1	170
FC(F)(F)Oc1ccc(Oc2ccc(CN3CCC4(CCNC4)CC3)cc2)cc1	6.6

Let us examine a further case.
Problem: Find the measured IC50 of `FC(F)(F)Oc1ccc(Oc2ccc(CN3CCC4(CCCO4)CC3)cc2)cc1` and report it.
Result: 141

* * *

# MEASUREMENT_DESCRIPTION: AUC in C57BL/6 mouse at 44 mg/kg, po via gavage by LC-MS/MS analysis
# Format: ADME, organism-based
# CONDITION_DESCRIPTION: in vivo
MEASUREMENT_TYPE: AUC (µg·h/mL)
Quick reminder: number only, in µg·h/mL, skip the unit.

Problem: Find the measured AUC of `FC(F)(F)Oc1ccc(Oc2ccc(N3CCC4(CC3)OCCc3sccc34)cc2)cc1` and report it.
Result: 8.74

* * *

# MEASUREMENT_DESCRIPTION: Cytotoxicity against human HepG2 cells after 48 hrs by cellTiter-Glo assay
# Assay type: cell-based
# CONDITION_DESCRIPTION: read-out: TC50
MEASUREMENT_TYPE: CC50 at 48 h
Write the numeric value and append its unit.

Problem: Find the measured CC50 at 48 h of `c1cc2c(s1)CCOC21CCN(Cc2ccc3c(c2)OCCO3)CC1` and report it.
Result: 36 µM

* * *

# MEASUREMENT_DESCRIPTION: Oral bioavailability in C57BL/6 mouse at 44 mg/kg via gavage by LC-MS/MS analysis
# Format: ADME, organism-based
# CONDITION_DESCRIPTION: in vivo
MEASUREMENT_TYPE: bioavailability (%)
Quick reminder: number only, in %, skip the unit.

Problem: Find the measured bioavailability of `FC(F)(F)Oc1ccc(Oc2ccc(N3CCC4(CC3)OCCc3sccc34)cc2)cc1` and report it.
Result: 42.6

* * *

# reported solubility kinetic at 1 h; entries follow
# MEASUREMENT_DESCRIPTION: physchem
# CONDITION_DESCRIPTION: buffer, pH 7.4
Quick reminder: number only, in µM, skip the unit.

FC(F)(F)Oc1ccc(Oc2ccc(CN3CCC4(CC3)OCCO4)cc2)cc1	52
CN1C(=O)C=CCC12CCN(Cc1ccc(Oc3ccc(OC(F)(F)F)cc3)cc1)CC2	87
O=C1OCCC12CCN(Cc1ccc(Oc3ccc(OC(F)(F)F)cc3)cc1)CC2	121
c1cc2c(s1)CCOC21CCN(Cc2ccc3c(c2)OCCO3)CC1	266
FC(F)(F)Oc1ccc(Oc2ccc(CN3CCC4(CCNC4)CC3)cc2)cc1	117

Problem: Find the measured solubility kinetic at 1 h of `FC(F)(F)Oc1ccc(Oc2ccc(CN3CCCCC3)cc2)cc1` and report it.
Result: 156

Problem: Find the measured solubility kinetic at 1 h of `CN1CCCC2(CCN(Cc3ccc(Oc4ccc(OC(F)(F)F)cc4)cc3)CC2)C1` and report it.
Result: 205

Problem: Find the measured solubility kinetic at 1 h of `FC(F)(F)Oc1ccc(Oc2ccc(CN3CCC4(CC3)OCCCO4)cc2)cc1` and report it.
Result: 53

Problem: Find the measured solubility kinetic at 1 h of `CC(C)(C)c1ccc(CN2CCC3(CC2)OCCCCO3)cc1` and report it.
Result: 194

Problem: Find the measured solubility kinetic at 1 h of `CC(C)(C)c1ccc(CN2CCC3(CCCOC3)CC2)cc1` and report it.
Result: 363

Problem: Find the measured solubility kinetic at 1 h of `CC(C)(C)c1ccc(CN2CCC3(CC2)OCCCO3)cc1` and report it.
Result: 374

* * *

# MEASUREMENT_DESCRIPTION: Cmax in C57BL/6 mouse at 44 mg/kg, po via gavage by LC-MS/MS analysis
# Type: ADME, organism-based
# Design: dose 44 mg/kg, route oral
# CONDITION_DESCRIPTION: in vivo
MEASUREMENT_TYPE: Cmax (ng/mL)
Quick reminder: number only, in ng/mL, skip the unit.

Problem: Find the measured Cmax of `FC(F)(F)Oc1ccc(Oc2ccc(N3CCC4(CC3)OCCc3sccc34)cc2)cc1` and report it.
Result: 1270

* * *

# MEASUREMENT_DESCRIPTION: Intrinsic clearance in human liver microsomes at 0.5 uM preincubated with NADPH and measured up to 30 mins by LC-MS/MS analysis
# Format: ADME, microsome
Binary call on CLH: true (1) from 3 mL/min/g upward, false (0) beneath that.

Known results for molecules:
CC(C)(C)c1ccc(CN2CCC3(CC2)OCCCCO3)cc1	true (1)
FC(F)(F)Oc1ccc(Oc2ccc(N3CCC4(CC3)OCCc3sccc34)cc2)cc1	false (0)
CC(C)(C)c1ccc(CN2CCC3(CCCCO3)CC2)cc1	true (1)
Clc1ccc2c(CN3CCC4(CC3)OCCc3sccc34)c[nH]c2c1	false (0)
c1ccc2c(CN3CCC4(CC3)OCCc3sccc34)c[nH]c2c1	true (1)

Problem: Reported CLH at or above 3 mL/min/g? `Cc1ccc(CN2CCC3(CC2)OCCc2sccc23)cc1C`
Result: true (1)

Problem: Reported CLH at or above 3 mL/min/g? `FC(F)(F)Oc1ccc(Oc2ccc(CN3CCC4(CCCCO4)CC3)cc2)cc1`
Result: false (0)

* * *

# Test system: HepG2
# MEASUREMENT_DESCRIPTION: Cytotoxicity against human HepG2 cells assessed as effect on mitochondrial membrane potential after 48 hrs by TMRM-staining based cell health assay
# Format: ADME
# CONDITION_DESCRIPTION: HepG2, 48 h
MEASUREMENT_TYPE: IC50 (µM)
Quick reminder: number only, in µM, skip the unit.

FC(F)(F)Oc1ccc(Oc2ccc(CN3CCC4(CC3)OCCCO4)cc2)cc1	28.8
CN1C(=O)C=CCC12CCN(Cc1ccc(Oc3ccc(OC(F)(F)F)cc3)cc1)CC2	36.3

Problem: Find the measured IC50 of `FC(F)(F)Oc1ccc(Oc2ccc(CN3CCCCC3)cc2)cc1` and report it.
Result: 49.5

* * *

# reported solubility kinetic at 1 h; entries follow
# MEASUREMENT_DESCRIPTION: physchem
# CONDITION_DESCRIPTION: buffer, pH 7.4

Reference set (2 entries):
FC(F)(F)Oc1ccc(Oc2ccc(CN3CCC4(CCCCO4)CC3)cc2)cc1	< 1 µM
CC(C)(C)c1ccc(CN2CCC3(CCOCC3)CC2)cc1	≥ 399 µM

Let us examine a further case.
Problem: Find the measured solubility kinetic at 1 h of `FC(F)(F)Oc1ccc(Oc2ccc(CN3CCC4(CCCCC4)CC3)cc2)cc1` and report it.
Result: < 1 µM
